Target: T1, LAG3 Protein, Human, Recombinant (His Tag) (Sino Biological Catalog No. 16498-H08H) (human, UniProt P18627 23-450)
T1 construct: Bought protein; also called hLAG3-His; LAG3-His; not shown: His tag
T1 sequence (looked up): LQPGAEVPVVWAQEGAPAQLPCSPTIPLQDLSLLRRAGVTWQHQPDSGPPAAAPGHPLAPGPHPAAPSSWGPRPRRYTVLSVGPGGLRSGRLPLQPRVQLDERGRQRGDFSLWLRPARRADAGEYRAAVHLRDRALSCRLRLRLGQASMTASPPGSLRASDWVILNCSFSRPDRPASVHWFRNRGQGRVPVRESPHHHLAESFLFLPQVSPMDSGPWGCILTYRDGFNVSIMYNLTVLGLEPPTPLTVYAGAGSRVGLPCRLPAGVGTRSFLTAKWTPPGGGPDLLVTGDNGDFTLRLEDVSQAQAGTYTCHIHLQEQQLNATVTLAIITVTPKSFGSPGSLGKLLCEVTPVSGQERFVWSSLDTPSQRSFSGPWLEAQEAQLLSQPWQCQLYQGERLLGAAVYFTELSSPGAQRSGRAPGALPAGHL
Experiment: ELISA, coated hLAG3-His
For each entry below, report its OD450 at 0.061 nM value.

Completed entries (count: 5):
sdAb No. 25-B6 (VHH, Humanized sdAb No. 25; not shown: Fc part implied by anti-human IgG1 Fc detection) VHH: QLQLVESGGGLVKPGGSLRLSCAASGSIESFSFMGWYRQAPGKQREWVAGFTGAASLSFSTYTDAVKGRFTISRDNAKNSVYLQMNSLRAEDTAVYYCNVDPWSQSWPGRYWGQGTTVTVSS | 0.037
sdAb No. 25-B7 (VHH, Humanized sdAb No. 25; not shown: Fc part implied by anti-human IgG Fc detection) VHH: QLQLVESGGGLVKPGGSLRLSCAASGSIESFSFMGWYRQAPGKQRELVAGFTGAASLSFSTYTDAVKGRFTISRDNAKNSVYLQMNSLRAEDTAVYFCNVDPWSQSWPGRYWGQGTTVTVSS | 0.038
sdAb No. 25-B5 (VHH, Humanized sdAb No. 25; not shown: Fc part implied by anti-human IgG1 Fc detection) VHH: QVQLVESGGGLVKPGGSLRLSCAASGSIESFSFMGWYRQAPGKQREWVAGFTGAASLSFSTYTDAVKGRFTISRDNAKNSLYLQMNSLRAEDTAVYYCNVDPWSQSWPGRYWGQGTTVTVSS | 0.036
sdAb No. 27-H1B3 (VHH, Humanized sdAb No. 27-H1; not shown: Fc part implied by anti-human IgG Fc detection) VHH: QVQLVESGGGLVQPGGSLRLSCAASGFTLDYYAIGWFRQAPGKEREGVSCIRSSDASTYYADSVKGRFTISSDNSKNTVYLQMNSLRAEDTAVYYCATDRYSDCRGPYENWGQGTMVTVSS | 0.038
sdAb No. 25 (VHH, Fc of the tested form not described; also called sdAb 25; sdAb #25; not shown: Fc part implied by anti-human Fc capture and anti-human IgG Fc detection) VHH: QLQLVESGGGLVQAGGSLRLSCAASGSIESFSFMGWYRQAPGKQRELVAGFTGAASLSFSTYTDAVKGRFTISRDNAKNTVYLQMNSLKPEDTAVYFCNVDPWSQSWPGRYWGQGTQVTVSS | 0.037

Q. Given the binder sdAb No. 27 (VHH, Fc of the tested form not described; also called sdAb 27; not shown: Fc part implied by anti-human Fc capture and anti-human IgG Fc detection) VHH: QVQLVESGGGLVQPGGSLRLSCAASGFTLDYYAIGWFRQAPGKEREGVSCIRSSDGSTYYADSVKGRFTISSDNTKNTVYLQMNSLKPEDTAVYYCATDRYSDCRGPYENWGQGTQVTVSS , what is its reported OD450 at 0.061 nM?
A. 0.037
